# MEASURED ON: hGLP1R (Homo sapiens, UniProt P43220)
# Construct: expressed in transfected cells; host or cells: HEK-293 cells carrying a CRE-luciferase reporter gene
# Sequence (P43220 24-463): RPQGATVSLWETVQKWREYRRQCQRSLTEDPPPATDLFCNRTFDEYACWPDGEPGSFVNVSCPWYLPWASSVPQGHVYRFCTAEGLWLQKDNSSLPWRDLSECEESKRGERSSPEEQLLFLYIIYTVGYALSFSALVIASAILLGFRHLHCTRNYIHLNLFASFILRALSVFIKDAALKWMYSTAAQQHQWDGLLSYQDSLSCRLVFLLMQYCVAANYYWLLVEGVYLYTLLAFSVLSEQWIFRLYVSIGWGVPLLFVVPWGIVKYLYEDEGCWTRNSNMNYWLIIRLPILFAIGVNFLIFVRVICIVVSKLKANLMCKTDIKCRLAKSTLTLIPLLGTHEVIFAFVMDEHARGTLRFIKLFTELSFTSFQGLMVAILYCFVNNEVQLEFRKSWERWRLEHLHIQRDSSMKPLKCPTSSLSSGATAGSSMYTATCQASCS
# ASSAY INFO: hGLP1R CreLuc reporter gene assay in 0.5% and 100% plasma
# Format: cell-based
# MEASUREMENT SETUP: CreLuc reporter gene assay, 0.5% human plasma; read-out: hGLP1R 0.5% hP
Starred links: 1 amine or outer side, 2 acyl side, 3 side chain; linkers in the order of their positions; H or OH if unused. Non-standard residues stand in square brackets, D forms with d. Groups on a side chain read outwards from the residue. No end group written: not given here. *: point of attachment. C20 diacid = O=C(O)CCCCCCCCCCCCCCCCCCC(=O)*; C18 diacid = O=C(O)CCCCCCCCCCCCCCCCC(=O)*; γGlu = O=C(O)[C@H](CCC(=O)[*:2])N[*:1]; εLys = N[C@@H](CCCCN[*:1])C(=O)[*:2]; hArg = N=C(N)NCCCC[C@H](N)C(=O)O; AEEA = NCCOCCOCC(=O)O; Aib = CC(C)(N)C(=O)O
MEASUREMENT LABEL: pEC50
Keep it numeric: pEC50 is minus log10 of the concentration in mol/L.

Use these answered entries as a reference point.
H-Y[Aib]EGTFTSDYSI[Aib]LEKQAQ[Aib]AFVEWLIK([εLys-γGlu-γGlu-γGlu-γGlu-γGlu-γGlu-C20 diacid])GGPSSGVSLRHYYNWLTRQRY-NH2 [Compound 96] : 9.85
H-Y[Aib]EGTFTSDYSI[Aib]LEKQAQ[Aib]AFVEWLIK([εLys-γGlu-γGlu-γGlu-γGlu-γGlu-γGlu-C20 diacid])GGPSSGADLRHYLNWLTRQRY-NH2 [Compound 72] : 9.82
H-Y[Aib]EGTFTSDYSI[Aib]LEKQAQ[Aib]AFVQWLIK([γGlu-γGlu-γGlu-γGlu-C18 diacid])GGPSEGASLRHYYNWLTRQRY-NH2 [Compound 268] : 10.10

Query for hGLP1R (Homo sapiens, UniProt P43220): what pEC50 does the record show for H-Y[Aib]EGTFTSDYSI[Aib]LEKQAQ[Aib]AFVQWLIK([εLys-γGlu-γGlu-γGlu-γGlu-γGlu-γGlu-C20 diacid])GGPSYYVSLRHYYNWLTRQRY-NH2 [Compound 19] ?
9.30

Param readout= pEC50; system= hGLP1R (Homo sapiens, UniProt P43220); entry= H-Y[Aib]EGTFTSDYSI[Aib]LEKQAQ[Aib]AFVQWLIK([γGlu-γGlu-γGlu-γGlu-γGlu-C18 diacid])GGPESGASLRHYYNWLTRQRY-NH2 [Compound 53] ; returns value.
10.05

Quick check: pEC50 on hGLP1R (Homo sapiens, UniProt P43220), item H-Y[Aib]EGTFTSDYSI[Aib]LEKQAQ[Aib]AFVEWLIK([AEEA-AEEA-γGlu-γGlu-γGlu-γGlu-C18 diacid])GGPSEPASLRHYYNWLTRQRY-NH2 [Compound 256] ?
9.74

Request body: readout pEC50, system hGLP1R (Homo sapiens, UniProt P43220), query H-Y[Aib]EGTFTSDYSI[Aib]LEKQAQ[Aib]AFVEWLIK([εLys-γGlu-γGlu-γGlu-γGlu-γGlu-γGlu-C20 diacid])GGPSSGIELRHFLNHLTRQRY-NH2 [Compound 2] . Return the value.
10.00

Quick check: pEC50 on hGLP1R (Homo sapiens, UniProt P43220), item H-Y[Aib]EGTFTSDYSI[Aib]LEKQAQ[Aib]AFVEWLIK([AEEA-AEEA-γGlu-γGlu-γGlu-γGlu-C18 diacid])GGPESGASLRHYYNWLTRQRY-NH2 [Compound 163] ?
10.00

Notebook entry, hGLP1R (Homo sapiens, UniProt P43220) assay: pEC50 of H-Y[Aib]EGTFTSDYSI[Aib]LEKQAQ[Aib]AFVEWLIK([AEEA-AEEA-γGlu-γGlu-γGlu-C18 diacid])GGPEEGASLRHYYNWLTRQRY-NH2 [Compound 248] = ?
9.60

Value wanted: pEC50 (hGLP1R (Homo sapiens, UniProt P43220)) of entry H-Y[Aib]EGTFTSDYSI[Aib]LEKQAQ[Aib]AFVEWLIK([AEEA-AEEA-γGlu-γGlu-γGlu-C18 diacid])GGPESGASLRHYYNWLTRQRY-NH2 [Compound 166]
10.15

Record H-Y[Aib]EGTFTSDYSI[Aib]LEKQAQ[Aib]AFVEWLIK([AEEA-γGlu-γGlu-γGlu-C18 diacid])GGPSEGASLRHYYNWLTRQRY-NH2 [Compound 300] : what is its pEC50 with hGLP1R (Homo sapiens, UniProt P43220)?
9.96

Tell me reported pEC50 for H-Y[Aib]EGTFTSDYSI[Aib]LEKEKQ[Aib]AFVEWLIK([εLys-γGlu-γGlu-γGlu-γGlu-γGlu-γGlu-C20 diacid])GGPSSGASLRHYYNWLTRQRY-NH2 [Compound 69] , tested with hGLP1R (Homo sapiens, UniProt P43220).
8.83

Query for hGLP1R (Homo sapiens, UniProt P43220): what pEC50 does the record show for H-Y[Aib]EGTFTSDYSI[Aib]LEKQAQ[Aib]AFVEWLIK([εLys-γGlu-γGlu-γGlu-γGlu-γGlu-γGlu-C20 diacid])GGPSSGAS[Aib]RHYYNWLT[hArg]QR[dY]-NH2 [Compound 26] ?
10.15

Field: pEC50 (hGLP1R (Homo sapiens, UniProt P43220)). Entry: H-Y[Aib]EGTFTSDYSI[Aib]LEKQAQ[Aib]AFVEWLIK([γGlu-γGlu-γGlu-γGlu-γGlu-C18 diacid])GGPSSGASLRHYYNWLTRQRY-NH2 [Compound 253]
10.10

Look up pEC50 with hGLP1R (Homo sapiens, UniProt P43220) for this substance: H-Y[Aib]EGTFTSDYSI[Aib]LEKQAQ[Aib]AFVQWLIK([AEEA-AEEA-γGlu-γGlu-γGlu-γGlu-γGlu-C20 diacid])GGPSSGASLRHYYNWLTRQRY-NH2 [Compound 112]
10.22

Give hGLP1R (Homo sapiens, UniProt P43220) pEC50 for H-Y[Aib]EGTFTSDYSI[Aib]LEEEAQ[Aib]AFVQWLIK([εLys-εLys-γGlu-γGlu-γGlu-γGlu-γGlu-C20 diacid])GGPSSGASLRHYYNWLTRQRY-NH2 [Compound 7]
9.89

Record Y[Aib]EGTFTSDYSI[Aib]LEKQAQ[Aib]AFVEWLIK([AEEA-AEEA-γGlu-γGlu-γGlu-γGlu-C18 diacid])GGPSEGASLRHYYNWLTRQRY-NH2 [Compound 297] : what is its pEC50 with hGLP1R (Homo sapiens, UniProt P43220)?
9.92

What measured pEC50 is associated with H-Y[Aib]EGTFTSDYSI[Aib]LEKQAQ[Aib]AFVEWLIK([εLys-γGlu-γGlu-γGlu-γGlu-γGlu-γGlu-C20 diacid])GGPSTGASLRHYYNWLTRQRY-NH2 [Compound 244] on hGLP1R (Homo sapiens, UniProt P43220)?
9.72

Notebook entry, hGLP1R (Homo sapiens, UniProt P43220) assay: pEC50 of H-Y[Aib]EGTFTSDYSI[Aib]LDKQAQ[Aib]AFVEWLIK([εLys-γGlu-γGlu-γGlu-γGlu-γGlu-γGlu-C20 diacid])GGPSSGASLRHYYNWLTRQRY-NH2 [Compound 128] = ?
9.40

So what pEC50 did H-Y[Aib]EGTFTSDYSI[Aib]LEKQAQ[Aib]AFVEWLIK([εLys-γGlu-γGlu-γGlu-γGlu-γGlu-γGlu-C20 diacid])GGPRSGASLRHYYNWLTRQRY-NH2 [Compound 168] get with hGLP1R (Homo sapiens, UniProt P43220)?
9.96
